These measurements were taken from patent US20110105397A1.

test summary: Human pharmacokinetics, healthy subjects, 7.5-hour continuous ascending dose IV infusion
Format: in vivo
measurement context: human, in vivo, healthy subjects, infusion rate 1/3/9 ng/kg/min, median, N = 5
property label: Tmax (h)

substance | value unit | observed result
H-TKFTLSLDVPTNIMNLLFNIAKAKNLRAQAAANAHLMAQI-NH2 [SEQ ID NO: 1] | h | 7

* * *

test summary: Human pharmacokinetics, heart failure subjects, 7.5-hour continuous ascending dose IV infusion
measurement context: in vivo, infusion rate 0.3/1/3 ng/kg/min, median, N = 2

substance | Tmax (h)
H-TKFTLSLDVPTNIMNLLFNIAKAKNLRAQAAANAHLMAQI-NH2 [SEQ ID NO: 1] | 6.25

* * *

test summary: Human pharmacokinetics, healthy subjects, 7.5-hour continuous ascending dose IV infusion
Assay type: in vivo
measurement context: human, in vivo, healthy subjects, infusion rate 36/72/144 ng/kg/min, N = 1
Method: In healthy subjects following a 7.5-hour continuous ascending dose IV infusion of h-SCP (SEQ ID NO:1) noncompartmental pharmacokinetic analyses were performed to determine plasma concentrations of h-SCP (SEQ ID NO:1). Plasma h-SCP (SEQ ID NO:1) reached the steady state shortly after initiating the IV infusion (FIG. 16A). […] Within 30 minutes, plasma h-SCP (SEQ ID NO:1) was reduced to ≦20% of the h-SCP (SEQ ID NO:1) level at the end of infusion. […]

substance | Cmax [ng/mL]
H-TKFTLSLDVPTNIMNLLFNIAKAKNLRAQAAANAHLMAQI-NH2 [SEQ ID NO: 1] | 29.1
